System: IRE1-XBP1s (XBP1-RLuc splicing reporter in HEK293 T-REx cells)
Experiment: IRE1-XBP1s activation assay (XBP1-RLuc splicing reporter, HEK293 T-REx cells, luminescence relative to thapsigargin)
Format: cell-based
Details: 18 h, read-out: Activity (IRE1-XBP1s activation, luminescence as % signal relative to thapsigargin, % Tg)
Structures can show the parent of a compound that is named as a salt.
Assignment: determine reported activation at 10 µM for the given molecules.

Please review the entries below; each comes with its answer.
> print(dat)
                                   molecule  value
1  C#CC1CCCCC1OCCC(=O)Nc1cnn(CC(=O)N(C)CCOc2ccc(C)cc2)c1 (centres unmarked) [Compound 2, hydrochloride]  > 50%
2  Cc1ccc(OCCN(C)C(=O)Cn2cc(NC(=O)C(C)(C)COc3ccccc3)cn2)cc1 [Compound 37]  < 30%
3  Cc1ccc(OCCN(C)C(=O)Cn2cc(NC(=O)COc3cccc4cccnc34)cn2)cc1 [Compound 287]  < 30%
4  Cc1ccc(OCCN(C)C(=O)Cn2cc(NC(=O)CCOc3ccc(C#N)cc3)cn2)cc1 [Compound 20]  < 30%
5  Cc1ccc(OCCN(C)C(=O)Cn2cc(NC(=O)C(C)(C)C(=O)Nc3ncc(F)cn3)cn2)cc1 [Compound 258]  < 30%
6  Cc1ccc(OCC(C)(C)N(C)C(=O)Cn2cc(NC(=O)CCOc3ccccc3F)cn2)cc1 [Compound 63]  > 50%
7  CN(CCc1ccc(Cl)cc1)C(=O)Cn1cc(NC(=O)CCOc2ccccc2)cn1 [Compound 22, hydrochloride]  < 30%

Now consider the entry below.
Record CN(CCOc1ccccn1)C(=O)Cn1cc(NC(=O)CCOc2ccccc2F)cn1 [Compound 43] , field activation at 10 µM: < 30%
